Where do the numbers come from? From the supplement of paper PMC12338614.

B1: library; numbered along this chain (parent)
chain: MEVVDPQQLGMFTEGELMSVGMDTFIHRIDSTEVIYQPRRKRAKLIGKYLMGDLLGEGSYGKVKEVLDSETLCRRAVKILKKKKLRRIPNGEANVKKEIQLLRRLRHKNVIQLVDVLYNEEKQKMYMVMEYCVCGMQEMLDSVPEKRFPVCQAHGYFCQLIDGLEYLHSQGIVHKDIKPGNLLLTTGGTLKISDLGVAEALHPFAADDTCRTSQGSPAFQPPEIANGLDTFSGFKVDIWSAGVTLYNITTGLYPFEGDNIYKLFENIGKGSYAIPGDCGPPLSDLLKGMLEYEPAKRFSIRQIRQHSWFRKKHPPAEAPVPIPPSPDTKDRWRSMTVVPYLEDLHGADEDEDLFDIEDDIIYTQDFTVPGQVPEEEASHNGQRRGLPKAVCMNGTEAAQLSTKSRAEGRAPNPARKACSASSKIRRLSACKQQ

Variants of: B1
assay_comment: STK11 functional score (HeLa growth suppression), rescaled enrichment; synonymous median = 1, nonsense median = 0 (normalised score)
condition_notes: with HeLa; variant type: missense
observation_type: STK11 functional score
When you answer, write just the number.

Inquiry: Item under review: L140A . Reported STK11 functional score?
Reply text: 0.543

Inquiry: Item under review: G346M . Reported STK11 functional score?
Reply text: 1.58
